System: CCRF-CEM
Test: Antiproliferative activity against resistant CCRF-CEM/VBL cell line
Format: functional
Conditions: Homo sapiens
Listed here: items and their measured GI50.
Property Name: GI50 (nM)

compound=CC/C=C\[C@H](C)[C@H](OC(N)=O)[C@@H](C)[C@H](O)[C@@H](C)C/C(C)=C\[C@H](C)[C@@H](O)[C@@H](C)/C=C\[C@@H](O)C[C@H]1CCC(=O)O1 observed_result=3810
compound="C=C/C=C\\[C@H](C)[C@H](OC(N)=O)[C@@H](C)[C@H](O)[C@@H](C)C/C(C)=C\\[C@H](C)[C@@H](O)[C@@H](C)/C=C\\[C@@H](O)C[C@@H]1OC(=O)[C@H](C)[C@@H](O)[C@H]1C [DISERMOLIDE]" observed_result=158
compound=CC/C=C\[C@H](C)[C@H](OC(N)=O)[C@@H](C)[C@H](O)[C@@H](C)C/C(C)=C\[C@H](C)[C@@H](O)[C@@H](C)/C=C\[C@@H](O)C[C@@H]1OC(=O)[C@H](C)[C@@H](OC)[C@H]1C observed_result=416
compound=CC/C=C\[C@H](C)[C@H](OC(N)=O)[C@@H](C)[C@H](O)[C@@H](C)C/C(C)=C\[C@H](C)[C@@H](O)[C@@H](C)/C=C\[C@@H](O)C[C@@H]1OC(=O)[C@H](C)C[C@H]1C observed_result=209
